- System: NCI/ADR-RES
- protocol: NCI tumour cell line growth inhibition, 48 h
Active and inactive are the calls of the source. Cut-off read from the data, not from the text of the source: active = GI50 up to about 1.1 µM and inactive = higher.
Please answer using one outcome listed in true (1) = active, false (0) = inactive

Ask | So what was the verdict on Oc1cccc2c1[nH]c1c(C3=C[C@@]4(O)CC/C=C\CCCCN5CC[C@@H]3[C@]3(CC6/C=C\CCCCN6[C@H]34)C5)nccc12 (stereo partly specified) in this test?
Reply | false (0)

* * *

- System: A549
- protocol: NCI tumour cell line growth inhibition, 48 h
The source made the active and inactive calls. No stated cut-off is given here; in the data, active = GI50 up to about 1.1 µM and inactive = higher.
measurement_name: GI50

Sample records with GI50:
compound | target_or_system | GI50
O=S(=O)(O)c1cc(O)c(/N=N\C2S(=O)(=O)OCCOS2(=O)=O)c2ccccc12 | A549 | > 100 µM (inactive)
C[C@]12CCc3nonc3C1CC[C@@H]1C2CC[C@@]2(C)C1CC[C@@H]2O (stereo partly drawn) | A549 | > 100 µM (inactive)
C=C1C(=O)[C@@]23CC[C@@H]4[C@@]5(C)CCC[C@@]4(OC5=O)[C@@]2(C)CC[C@@H]1C3 | A549 | 3.28 µM (inactive)
COc1cccc2c1OC(c1ccc(C#N)cc1)C([N+](=O)[O-])=C2 (stereo not drawn) | A549 | 2.56 µM (inactive)
NNC(=O)CCC(NS(=O)(=O)c1ccc(Cl)cc1)C(=O)NN (stereo not drawn) | A549 | > 100 µM (inactive)
COc1cc(N)c2[nH]c3c(C)ccc(C)c3c2c1 | A549 | > 100 µM (inactive)
COC(=O)/C=C(C)/C=C/c1cc(C(C)=O)c(C)o1 | A549 | 66.7 µM (inactive)

Ask | Field: GI50 (A549). Entry: COc1cc2c(cc1C)NC(=O)/C2=C/c1c(Cl)n(-c2ccccc2)c2ccccc12
Reply | 7 µM (inactive)
